# test-target: CYP2D6 (Homo sapiens, UniProt P10635)
# Sequence (P10635 whole entry): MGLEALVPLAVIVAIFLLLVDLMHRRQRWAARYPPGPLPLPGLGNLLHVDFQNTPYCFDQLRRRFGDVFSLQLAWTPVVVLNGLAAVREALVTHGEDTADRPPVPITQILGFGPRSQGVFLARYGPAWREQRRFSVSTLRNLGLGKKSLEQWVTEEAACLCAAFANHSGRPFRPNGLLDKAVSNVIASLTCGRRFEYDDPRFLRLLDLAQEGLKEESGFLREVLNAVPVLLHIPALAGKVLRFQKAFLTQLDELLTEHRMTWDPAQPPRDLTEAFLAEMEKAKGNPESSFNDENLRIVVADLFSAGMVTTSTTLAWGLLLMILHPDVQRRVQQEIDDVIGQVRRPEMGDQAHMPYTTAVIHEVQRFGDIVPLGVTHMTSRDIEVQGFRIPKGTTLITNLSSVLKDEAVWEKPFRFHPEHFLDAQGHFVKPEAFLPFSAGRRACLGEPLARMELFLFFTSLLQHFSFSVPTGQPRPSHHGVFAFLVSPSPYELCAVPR
# method-summary: Inhibition of CYP2D6 (unknown origin) assessed as bufuralol hydroxylation to 4'-hydroxy bufuralol at 10 uM by cocktail inhibition assay relative to control
# run-parameters: probe bufuralol (hydroxylation to 4'-hydroxy bufuralol)
Given measured inhibition at 10 µM, output t if it is greater than or equal to 20% and f if not.

Reference set (4 entries):
| structure-smiles | assigned-class |
| --- | --- |
| CNC(=O)c1cc(-n2ncc3cc(Nc4ccccc4Cl)c(F)cc32)cs1 | f |
| CNC(=O)c1cc(-n2ncc3cc(Nc4ccccc4Cl)cnc32)cs1 | t |
| O=C(NC1COC1)c1cc(-n2ncc3cc(Nc4ccccc4Cl)c(F)cc32)cs1 | f |
| O=C(NC1COC1)c1cc(-n2ncc3cc(Nc4ccccc4Cl)cnc32)cs1 | f |

Now for a further molecule.
Q: Does inhibition at 10 µM meet or surpass 20% for "CNC(=O)c1cc(-n2ncc3cc(Nc4c(F)cccc4Cl)c(C)nc32)cs1" ?
Result: f

* * *

I'd be grateful if you could share measured IC50 for these entries.
# test-target: Mitogen-activated protein kinase 8 (Homo sapiens, UniProt P45983)
# Sequence (P45983 whole entry): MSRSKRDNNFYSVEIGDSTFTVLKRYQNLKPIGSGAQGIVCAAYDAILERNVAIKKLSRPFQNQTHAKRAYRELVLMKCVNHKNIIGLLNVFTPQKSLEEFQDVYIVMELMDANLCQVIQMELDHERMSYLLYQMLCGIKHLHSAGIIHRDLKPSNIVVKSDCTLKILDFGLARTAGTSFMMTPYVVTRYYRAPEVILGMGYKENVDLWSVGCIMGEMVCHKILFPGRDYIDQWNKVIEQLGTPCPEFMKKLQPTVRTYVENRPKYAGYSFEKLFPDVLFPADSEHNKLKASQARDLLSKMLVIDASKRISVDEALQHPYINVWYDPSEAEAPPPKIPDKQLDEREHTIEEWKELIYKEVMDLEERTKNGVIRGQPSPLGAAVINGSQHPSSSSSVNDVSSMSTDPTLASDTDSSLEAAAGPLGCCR
# method-summary: Inhibition of JNK1 (unknown origin) using biotinylated FL-ATF-2 as substrate measured after 22 mins by homogeneous time-resolved fluorescence analysis
One number for each entry, in nM.

| structure-smiles | test-target | quantity-measured | u | endpoint-value |
| --- | --- | --- | --- | --- |
| CC(C)N1CC[C@@H](NC(=O)c2cc(-n3ncc4cc(Nc5ccccc5Cl)ccc43)cs2)C1 | Mitogen-activated protein kinase 8 (Homo sapiens, UniProt P45983) | IC50 | nM | 825 |

# per-item lookup of IC50; items listed below
1. O=C(N[C@H]1CCOC1)c1cc(-n2ncc3cc(Nc4ccccc4Cl)c(F)cc32)cs1
2. O=C(NC1CC1)c1cc(-n2ncc3cc(Nc4ccccc4Cl)c(F)cc32)cs1
3. Cc1nc2c(cnn2-c2csc(C(=O)NC3COC3)c2)cc1Nc1ccc(F)cc1Cl

Result:
[178, 150, 6000]

* * *

# test-target: Mitogen-activated protein kinase 10 (Homo sapiens, UniProt P53779)
# Sequence (P53779 whole entry): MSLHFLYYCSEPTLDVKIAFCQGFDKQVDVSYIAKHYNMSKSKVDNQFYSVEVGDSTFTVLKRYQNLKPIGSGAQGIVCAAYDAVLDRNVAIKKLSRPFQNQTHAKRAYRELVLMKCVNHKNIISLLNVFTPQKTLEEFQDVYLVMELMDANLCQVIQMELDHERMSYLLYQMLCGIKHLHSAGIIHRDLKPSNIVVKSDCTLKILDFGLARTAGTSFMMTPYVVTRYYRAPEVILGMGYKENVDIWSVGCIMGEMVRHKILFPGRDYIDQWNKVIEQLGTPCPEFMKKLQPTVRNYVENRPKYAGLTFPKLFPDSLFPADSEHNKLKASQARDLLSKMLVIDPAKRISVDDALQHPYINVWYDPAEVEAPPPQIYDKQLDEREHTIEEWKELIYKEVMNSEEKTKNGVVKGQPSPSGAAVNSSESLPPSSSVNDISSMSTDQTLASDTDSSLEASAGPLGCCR
# method-summary: Inhibition of JNK3alpha1 (unknown origin) using biotinylated FL-ATF-2 as substrate measured after 22 mins by homogeneous time-resolved fluorescence analysis
Rule: IC50 below 2 nM gives fulfilled, anything at or above gives not fulfilled.

Reference set (4 entries):
| structure-smiles | assigned-class |
| --- | --- |
| [2H]C([2H])([2H])N1CC[C@H](NC(=O)c2cc(-n3ncc4cc(Nc5ccccc5Cl)ccc43)cs2)C1 | fulfilled |
| CNC(=O)c1cc(-n2ncc3cc(Nc4c(F)cccc4Cl)c(C)nc32)cs1 | not fulfilled |
| CC(C)N1CC[C@@H](NC(=O)c2cc(-n3ncc4cc(Nc5ccccc5Cl)ccc43)cs2)C1 | not fulfilled |
| Cc1nc2c(cnn2-c2csc(C(=O)NC3COC3)c2)cc1Nc1ccc(F)cc1Cl | not fulfilled |

Q: # TODO verify IC50 < 2 nM strictly for this compound: "Cc1nc2c(cnn2-c2csc(C(=O)NC3COC3)c2)cc1Nc1cccc(F)c1Cl"
Result: not fulfilled

Q: # TODO verify IC50 < 2 nM strictly for this compound: "CNC(=O)c1cc(-n2ncc3cc(Nc4ccccc4Cl)c(OC)cc32)cs1"
Result: not fulfilled

* * *

# test-target: Mitogen-activated protein kinase 10 (Homo sapiens, UniProt P53779)
# method-summary: Inhibition of JNK3alpha1 (unknown origin) using biotinylated FL-ATF-2 as substrate measured after 22 mins by homogeneous time-resolved fluorescence analysis
I'd be grateful if you could share measured IC50 for these entries.
Numbers only, in nM.

Consider the following illustrative entries.
| structure-smiles | IC50, nM |
| --- | --- |
| CNC(=O)c1cc(-n2ncc3cc(Nc4c(F)cccc4Cl)c(F)cc32)cs1 | 2 |
| [2H]C([2H])([2H])N1CC[C@H](NC(=O)c2cc(-n3ncc4cc(Nc5ccccc5Cl)c(F)cc43)cs2)C1 | 5 |

# per-item lookup of IC50; items listed below
1. O=C(NC1COC1)c1cc(-n2ncc3cc(Nc4ccccc4Cl)ncc32)cs1
2. CC(=O)N1CC[C@H](NC(=O)c2cc(-n3ncc4cc(Nc5ccccc5Cl)c(F)cc43)cs2)C1
3. Cc1nc2c(cnn2-c2csc(C(=O)NC3COC3)c2)cc1Nc1cc(F)ccc1Cl
4. CNC(=O)c1cc(-n2ncc3cc(Nc4ccccc4Cl)cnc32)cs1
5. O=C(NCC(F)F)c1cc(-n2ncc3cc(Nc4ccccc4Cl)c(F)cc32)cs1
6. O=C(NC1COC1)c1cc(-n2ncc3cc(Nc4ccccc4Cl)cnc32)cs1
7. O=C(NC1CC1)c1cc(-n2ncc3cc(Nc4ccccc4Cl)c(F)cc32)cs1

Result:
1: 5; 2: 4; 3: 1070; 4: 24; 5: 4; 6: 6; 7: 1

* * *

# test-target: Mitogen-activated protein kinase 9 (Homo sapiens, UniProt P45984)
# Sequence (P45984 whole entry): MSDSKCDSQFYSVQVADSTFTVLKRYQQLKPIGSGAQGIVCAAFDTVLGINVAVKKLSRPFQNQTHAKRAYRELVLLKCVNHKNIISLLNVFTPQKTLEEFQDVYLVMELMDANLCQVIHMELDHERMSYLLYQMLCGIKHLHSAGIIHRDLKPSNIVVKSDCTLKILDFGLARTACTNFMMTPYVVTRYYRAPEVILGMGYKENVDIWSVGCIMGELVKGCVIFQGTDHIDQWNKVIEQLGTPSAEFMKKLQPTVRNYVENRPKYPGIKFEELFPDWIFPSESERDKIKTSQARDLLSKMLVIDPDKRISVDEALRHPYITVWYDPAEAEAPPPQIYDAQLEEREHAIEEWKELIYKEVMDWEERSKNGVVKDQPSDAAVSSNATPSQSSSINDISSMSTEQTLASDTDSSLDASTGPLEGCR
# method-summary: Inhibition of JNK2 (unknown origin) using biotinylated FL-ATF-2 as substrate measured after 22 mins by homogeneous time-resolved fluorescence analysis
quantity-measured: log10(IC50) (log10 of the value in nM)
Record value = log10 of IC50 given in nM.

Consider the following illustrative entries.
| structure-smiles | log10(IC50) |
| --- | --- |
| O=C(NC1COC1)c1cc(-n2ncc3cc(Nc4ccccc4Cl)c(F)cc32)cs1 | 3.12 |
| O=C(NC1COC1)c1cc(-n2ncc3cc(Nc4ccccc4Cl)cnc32)cs1 | 2.41 |
| CNC(=O)c1cc(-n2ncc3cc(Nc4c(F)cccc4Cl)cnc32)cs1 | 1.72 |

# per-item lookup of log10(IC50); items listed below
1. CNC(=O)c1cc(-n2ncc3cc(Nc4c(F)cccc4Cl)c(C)nc32)cs1
2. CNC(=O)c1cc(-n2ncc3cc(Nc4ccccc4Cl)c(F)cc32)cs1
3. CNC(=O)c1cc(-n2ncc3cc(Oc4ccccc4Cl)ccc32)cs1
4. CNC(=O)c1cc(-n2ncc3cc(Nc4ccccc4Cl)cnc32)cs1
5. CNC(=O)c1cc(-n2ncc3cc(Nc4c(F)cccc4Cl)c(F)cc32)cs1

Result:
2.15
1.97
3.01
2.62
1.46

# per-item lookup of log10(IC50); items listed below
1. Cc1nc2c(cnn2-c2csc(C(=O)NC3COC3)c2)cc1Nc1c(F)cccc1Cl
2. CNC(=O)c1cc(-n2ncc3cc(Nc4c(F)cccc4Cl)ncc32)cs1

Result:
[1.87, 1.87]

* * *

# method-summary: Stability in mouse liver microsome assessed as half life
# Format: ADME
# run-parameters: liver microsomes
I'd be grateful if you could share measured half-life for these entries.

| structure-smiles | quantity-measured | endpoint-value |
| --- | --- | --- |
| Cc1nc2c(cnn2-c2csc(C(=O)NC3COC3)c2)cc1Nc1c(F)cccc1Cl | half-life | 77 min |
| CNC(=O)c1cc(-n2ncc3cc(Nc4c(F)cccc4Cl)c(C)nc32)cs1 | half-life | 17 min |

For the next question, use this compound.
half-life measured on "O=C(NC1COC1)c1cc(-n2ncc3cc(Nc4ccccc4Cl)cnc32)cs1" = 9 min

* * *

# method-summary: Selectivity index, ratio of IC50 for JNK1 (unknown origin) to IC50 for JNK3 (unknown origin)
Each entry falls in a class defined on Ratio IC50; the bands are low interval = under 80, middle interval = from 80 up to 100, high interval = 100 and over

Reference set (5 entries):
| structure-smiles | assigned-class |
| --- | --- |
| CC(C)NC(=O)c1cc(-n2ncc3cc(Nc4ccccc4Cl)c(F)cc32)cs1 | high interval |
| CNC(=O)c1cc(-n2ncc3cc(Nc4c(F)cccc4Cl)c(C)nc32)cs1 | low interval |
| CNC(=O)c1cc(-n2ncc3cc(Nc4ccccc4Cl)c(OC)cc32)cs1 | low interval |
| O=C(NCC(F)F)c1cc(-n2ncc3cc(Nc4ccccc4Cl)c(F)cc32)cs1 | middle interval |
| O=C(NC1CC1)c1cc(-n2ncc3cc(Nc4ccccc4Cl)c(F)cc32)cs1 | high interval |

Now for a further compound.
Q: Which bin, given its Ratio IC50, does "O=C(N[C@H]1CCOC1)c1cc(-n2ncc3cc(Nc4ccccc4Cl)c(F)cc32)cs1" occupy?
Result: middle interval

* * *

# method-summary: Stability in mouse liver microsome assessed as half life
# Type: ADME
# run-parameters: liver microsomes
quantity-measured: half-life
Answers without a unit are incomplete; give the number and then its unit.

Consider the following illustrative entries.
| structure-smiles | endpoint-value |
| --- | --- |
| CNC(=O)c1cc(-n2ncc3cc(Nc4ccccc4Cl)c(F)cc32)cs1 | 42 min |
| CNC(=O)c1cc(-n2ncc3cc(Nc4c(F)cccc4Cl)cnc32)cs1 | 22 min |
| CNC(=O)c1cc(-n2ncc3cc(Oc4ccccc4Cl)ccc32)cs1 | 15 min |
| O=C(NC1COC1)c1cc(-n2ncc3cc(Nc4ccccc4Cl)c(F)cc32)cs1 | 20 min |

For the next question, use this compound.
half-life measured on "CNC(=O)c1cc(-n2ncc3cc(Nc4ccccc4Cl)cnc32)cs1" = 14 min

Origin of measurements: ChEMBL document CHEMBL4837263
